Target: T1, GPIIb/IIIa (SEQ ID NOs: 23 and 24) (human, UniProt P08514 32-994; P05106 27-716)
T1 construct: also called GPIIb/IIIa complex
T1 sequence (P08514 32-994 limits assumed, chain 1 of 2): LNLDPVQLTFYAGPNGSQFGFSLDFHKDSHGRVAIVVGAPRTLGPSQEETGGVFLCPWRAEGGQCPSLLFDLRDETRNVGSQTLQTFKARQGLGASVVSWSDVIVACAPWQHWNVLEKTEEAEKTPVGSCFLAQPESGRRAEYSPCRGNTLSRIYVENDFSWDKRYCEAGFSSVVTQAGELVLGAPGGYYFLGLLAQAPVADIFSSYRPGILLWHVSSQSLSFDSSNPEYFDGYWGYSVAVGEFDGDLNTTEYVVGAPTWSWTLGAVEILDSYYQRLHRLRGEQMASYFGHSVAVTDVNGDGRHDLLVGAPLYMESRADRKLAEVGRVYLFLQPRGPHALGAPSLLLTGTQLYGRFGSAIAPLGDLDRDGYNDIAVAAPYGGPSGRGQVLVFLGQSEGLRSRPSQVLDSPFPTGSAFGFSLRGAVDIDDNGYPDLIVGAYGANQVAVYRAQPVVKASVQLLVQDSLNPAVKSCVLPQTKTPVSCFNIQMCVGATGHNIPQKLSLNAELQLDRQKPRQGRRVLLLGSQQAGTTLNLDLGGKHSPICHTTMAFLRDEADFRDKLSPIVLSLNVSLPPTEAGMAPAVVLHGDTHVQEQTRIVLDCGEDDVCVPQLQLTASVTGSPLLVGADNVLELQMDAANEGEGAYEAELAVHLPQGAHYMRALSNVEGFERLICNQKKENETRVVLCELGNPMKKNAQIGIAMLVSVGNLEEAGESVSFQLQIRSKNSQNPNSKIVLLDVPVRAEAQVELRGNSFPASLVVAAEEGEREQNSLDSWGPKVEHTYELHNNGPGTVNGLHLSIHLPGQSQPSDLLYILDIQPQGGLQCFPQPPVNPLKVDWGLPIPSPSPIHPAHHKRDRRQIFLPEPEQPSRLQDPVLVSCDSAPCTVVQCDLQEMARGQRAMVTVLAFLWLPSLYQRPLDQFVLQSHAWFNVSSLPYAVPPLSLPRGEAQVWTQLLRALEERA
T1 sequence (P05106 27-716 limits assumed, chain 2 of 2): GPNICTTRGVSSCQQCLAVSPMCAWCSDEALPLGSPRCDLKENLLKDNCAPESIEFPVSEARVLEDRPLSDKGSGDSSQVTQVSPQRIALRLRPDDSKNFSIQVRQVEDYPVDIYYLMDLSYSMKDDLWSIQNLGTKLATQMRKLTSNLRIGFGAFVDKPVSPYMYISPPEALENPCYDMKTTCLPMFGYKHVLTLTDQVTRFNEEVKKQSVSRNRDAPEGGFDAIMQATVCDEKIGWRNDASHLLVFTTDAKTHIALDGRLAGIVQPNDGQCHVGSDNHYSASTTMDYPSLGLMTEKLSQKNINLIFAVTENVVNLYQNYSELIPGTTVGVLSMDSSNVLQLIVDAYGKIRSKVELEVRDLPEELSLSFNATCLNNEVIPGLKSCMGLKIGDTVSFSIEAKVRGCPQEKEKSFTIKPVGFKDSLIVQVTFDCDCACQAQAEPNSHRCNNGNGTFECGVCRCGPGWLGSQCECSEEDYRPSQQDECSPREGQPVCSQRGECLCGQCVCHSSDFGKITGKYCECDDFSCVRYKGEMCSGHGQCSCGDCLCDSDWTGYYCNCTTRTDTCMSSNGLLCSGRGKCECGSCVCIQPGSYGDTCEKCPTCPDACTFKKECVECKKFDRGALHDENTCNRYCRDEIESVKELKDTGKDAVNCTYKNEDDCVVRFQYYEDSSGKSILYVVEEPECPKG
Test: Bio-Layer Interferometry (OctetRed), monovalent format, yeast-purified Fab; apparent dissociation rate Kdis
observable: koff (s⁻¹)
API: value field is a number in s⁻¹; no unit string.

# example entries with known answers
| binder | observable | unitAbbreviation | measuredValue |
| --- | --- | --- | --- |
| affinity matured h34D10 Fab VH116/VL0 (Fab, V domains shown, Yeast-purified Fab) VH: EVQLVESGGGLVKPGGSLRLSCAASGFTFSAYAMSWVRQAPGKGLVWVASISSGGTTYYPDSVKRQFTISRDDAKNTLYLQMNSLRAEDTAVYYCTRGGDYGYALDYWGQGTLVTVSS VL: EIVMTQSPATLSVSPGERATLSCRASSSVNYMYWYQQKPGQAPRLLIYYTSNLAPGIPARFSGSGSGTEFTLTISSLQSEDFAVYYCQQFSSSPWTFGQGTKVEIK | koff | s⁻¹ | 0.0432 |
| humanized 34D10 Fab L0/H2 (Fab, V domains shown, Fab; also called VL0/VH2) VH: EVQLVESGGGLVKPGGSLRLSCAASGFTFSAYAMSWVRQAPGKGLVWVASISSGGTTYYPDSVKRQFTISRDNAKNTLYLQMNSLRAEDTAVYYCTRGGDYGYALDYWGQGTLVTVSS VL: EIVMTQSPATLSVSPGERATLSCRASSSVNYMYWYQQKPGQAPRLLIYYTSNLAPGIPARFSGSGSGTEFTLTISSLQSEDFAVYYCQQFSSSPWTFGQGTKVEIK | koff | s⁻¹ | 0.0563 |

Next, consider the following binder.
What value of koff has been recorded for this entry: affinity matured h34D10 Fab VH119/VL0 (Fab, V domains shown, Yeast-purified Fab) VH: GVQLVESGGGLVKPGGSLRLSCAASGFTFSAYAMSWVRQAPGKGLVWVASISSGGTTYYPDSVKRQFTISRDNAKNTLYLQMNSLRAEDTAVYYCTRGGDYGYALDYWGQGTLVTVSS VL: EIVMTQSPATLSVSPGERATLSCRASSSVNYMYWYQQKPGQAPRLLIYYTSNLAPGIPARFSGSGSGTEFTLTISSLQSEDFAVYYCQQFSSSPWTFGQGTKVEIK
0.0482
